system: A549; assay: Antiproliferative activity against human A549 cells after 72 hrs by SRB assay; format: functional, cell-based; settings: Homo sapiens, A549, 72 h
For each entry below, report its IC50 value.
Your answer should be a plain number; it is taken to be in µM.

IC50 reading for COc1cc(/C=C2\C(=O)OCC2Cc2ccc3c(c2)OCO3)cc(O)c1OC (stereo unspecified) : 4.32

// sample COc1cc(/C=C2\C(=O)OCC2Cc2ccc3c(c2)OCO3)cc(OC)c1OC(=O)CN(C)C (stereo unspecified) , its IC50 was 6.15

Per the record, COc1cc(/C=C2\C(=O)OCC2Cc2ccc3c(c2)OCO3)cc(OC)c1O (stereo unspecified) has IC50 of 6.17

IC50 recorded for this compound, Cc1cc(/C=C2\C(=O)OCC2Cc2ccc3c(c2)OCO3)ccc1F (stereo unspecified) , is 5.72

----------
Give measured IC50 for each item. Keep answers brief.
tested on: MDA-MB-231; assay: Antiproliferative activity against human MDA-MB-231 cells after 72 hrs by SRB assay; format: functional, cell-based; conditions: Homo sapiens, MDA-MB-231, 72 h

Known value: MDA-MB-231 IC50 of the compound `COc1cc(/C=C2\C(=O)OC\C2=C\c2ccc3c(c2)OCO3)cc(OC)c1OC(=O)CN(C)C` equals > 40 µM

Tested system MDA-MB-231; IC50 recorded for COc1cc(/C=C2\C(=O)OCC2Cc2ccc3c(c2)OCO3)cc(O)c1OC (stereo unspecified) was 8.55 µM

GET /values?item= `COc1cc(/C=C2\C(=O)OC\C2=C\c2ccc3c(c2)OCO3)cc(OC(=O)[C@@H](N)Cc2ccccc2)c1OC` &system= MDA-MB-231 returns IC50: > 40 µM

Query `COc1cc(/C=C2\C(=O)OC\C2=C\c2ccc3c(c2)OCO3)cc(OC)c1OC` on MDA-MB-231; IC50 returned: > 40 µM

Per the reported MDA-MB-231 data, `Cc1cc(/C=C2\C(=O)OC\C2=C\c2ccc3c(c2)OCO3)ccc1F` has IC50 of > 40 µM

Measured IC50 for this entry COc1cc(/C=C2\C(=O)OCC2Cc2ccc3c(c2)OCO3)cc(OC)c1OC(=O)[C@@H](N)Cc1ccccc1 (stereo partly specified) on MDA-MB-231: 9.73 µM

----------
system: A549; assay: Antiproliferative activity against human A549 cells after 72 hrs by SRB assay; assay type: functional, cell-based; conditions: Homo sapiens, A549, 72 h
For each of the compounds below, state its IC50.
Number only, in µM; omit the unit.

IC50 in this record for COc1cc(/C=C2\C(=O)OCC2Cc2ccc3c(c2)OCO3)cc(OC)c1OC (racemic) : 5.5

For reference, reported IC50 for COc1cc(/C=C2\C(=O)OCC2Cc2ccc3c(c2)OCO3)cc(OC(=O)[C@@H](N)Cc2ccccc2)c1OC (stereo not given in full) stands at 4.8

----------
system: KB; assay: Antiproliferative activity against human KB cells after 72 hrs by SRB assay; assay type: functional, cell-based; settings: kb
experimental readout: IC50 (µM)
Field format: number, assumed µM, no unit text.

The recorded IC50 for COc1cc(/C=C2\C(=O)OCC2Cc2ccc3c(c2)OCO3)cc(OC(=O)CN(C)C)c1OC (stereo not drawn) is 5.53

----------
tested on: MDA-MB-231; experiment: Antiproliferative activity against human MDA-MB-231 cells after 72 hrs by SRB assay; format: functional, cell-based; conditions: Homo sapiens, MDA-MB-231, 72 h
Kindly state pIC50 for each of the entries shown.
Answer as the number alone; pIC50 is minus log10 of concentration in mol/L.

Note to self: pIC50 recorded for COc1cc(/C=C2\C(=O)OCC2Cc2ccc3c(c2)OCO3)cc(OC)c1OC (racemic) was 5.23

Memo: Cc1cc(/C=C2\C(=O)OCC2Cc2ccc3c(c2)OCO3)ccc1F (centres undefined) , reported pIC50: 5.06

Documented pIC50 of COc1cc(/C=C2\C(=O)OCC2Cc2ccc3c(c2)OCO3)cc(OC(=O)CN(C)C)c1OC (centres undefined) : 5.04

// sample COc1cc(/C=C2\C(=O)OCC2Cc2ccc3c(c2)OCO3)cc(OC(=O)[C@@H](N)Cc2ccccc2)c1OC (some centres undefined) , its pIC50 was 5.06

----------
test system: A549; experiment: Antiproliferative activity against human A549 cells after 72 hrs by SRB assay; assay type: functional, cell-based; settings: Homo sapiens, A549, 72 h
pIC50: −log10 of the molar value.
Assign pIC50 to each entry below.

Reported pIC50 ( `COc1cc(/C=C2\C(=O)OC\C2=C\c2ccc3c(c2)OCO3)cc(OC)c1OC(=O)CN(C)C` ) = < 4.40

Data point: `Cc1cc(/C=C2\C(=O)OC\C2=C\c2ccc3c(c2)OCO3)ccc1F` ; pIC50 = < 4.40

Looking up `COc1cc(/C=C2\C(=O)OC\C2=C\c2ccc3c(c2)OCO3)cc(OC(=O)CN(C)C)c1OC` , I see its pIC50 listed as < 4.40
